- experimental system: CLK2 (human) (UniProt P49760)
- Sequence (P49760 whole entry, looked up): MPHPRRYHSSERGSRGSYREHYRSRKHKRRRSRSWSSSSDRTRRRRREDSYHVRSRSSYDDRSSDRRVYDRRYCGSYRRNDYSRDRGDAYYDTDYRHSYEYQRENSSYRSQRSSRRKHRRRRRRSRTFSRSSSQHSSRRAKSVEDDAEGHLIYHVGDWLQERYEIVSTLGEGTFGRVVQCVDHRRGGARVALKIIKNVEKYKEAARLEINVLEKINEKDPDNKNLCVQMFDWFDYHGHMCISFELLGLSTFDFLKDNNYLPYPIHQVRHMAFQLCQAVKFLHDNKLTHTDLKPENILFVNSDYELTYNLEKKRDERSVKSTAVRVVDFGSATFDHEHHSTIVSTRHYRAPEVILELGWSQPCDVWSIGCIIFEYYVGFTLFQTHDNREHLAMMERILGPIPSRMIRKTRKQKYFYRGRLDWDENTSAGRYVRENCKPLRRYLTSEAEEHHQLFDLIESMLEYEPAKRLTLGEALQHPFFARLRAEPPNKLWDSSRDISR
- measurement description: Caliper, Mobility shift assay off-chip
- measurement context: compound 0.2 µM
measure name: inhibition (%)

> print(dat)
                           structure.string  readout.unit  measured
1  COc1cc2c(Oc3ccc4[nH]c(C)cc4c3F)ncnc2cc1OCCCN1CCCC1             %       1.1
2  CCN(CC)CCNC(=O)c1c(C)[nH]c(/C=C2\C(=O)Nc3ccc(F)cc32)c1C             %      78.3
3  Cc1ccc(Nc2nccc(N(C)c3ccc4c(C)n(C)nc4c3)n2)cc1S(N)(=O)=O             %       7.2
4  CNC(=O)c1cc(Oc2ccc(NC(=O)Nc3ccc(Cl)c(C(F)(F)F)c3)cc2)ccn1             %      -2.1
